- Tested on: MCF-7 cells
- test method notes: In vitro test of cell activity (MCF-7 cells, insulin stimulation, ELISA-One fluorescence)
- Assay type: cell-based
- measurement conditions: Homo sapiens, MCF7, MCF-7 cells, conc. 0.25 μM; read-out: % inhibition p70s6k
Parameter: inhibition at 0.25 µM. Scope: all listed entries.
Could you give me the number in %? Just the number is fine.

compound structure	recorded measurement
COc1ncc(-c2ccc3ncc(O)c(=O)n3c2)cc1NS(=O)(=O)c1ccc(F)cc1F	8.6
COc1ncc(-c2ccc3nc(C)cc(=O)n3c2)cc1NS(=O)(=O)c1ccc(C(F)(F)F)cc1	-1.5
COc1ncc(-c2ccc3ncc(OC)c(=O)n3c2)cc1NS(=O)(=O)c1ccc(Cl)s1	82.5

As a next step, examine the molecule that follows.
// query inhibition at 0.25 µM value for entry COc1ncc(-c2ccc3ncc(Cl)c(=O)n3c2)cc1NS(=O)(=O)c1cnc(C)s1
74.1

* * *

The reader will find IC50 measurements below, all made with PI3K (p110α) kinase (Homo sapiens).
Sequence (P42336 whole entry): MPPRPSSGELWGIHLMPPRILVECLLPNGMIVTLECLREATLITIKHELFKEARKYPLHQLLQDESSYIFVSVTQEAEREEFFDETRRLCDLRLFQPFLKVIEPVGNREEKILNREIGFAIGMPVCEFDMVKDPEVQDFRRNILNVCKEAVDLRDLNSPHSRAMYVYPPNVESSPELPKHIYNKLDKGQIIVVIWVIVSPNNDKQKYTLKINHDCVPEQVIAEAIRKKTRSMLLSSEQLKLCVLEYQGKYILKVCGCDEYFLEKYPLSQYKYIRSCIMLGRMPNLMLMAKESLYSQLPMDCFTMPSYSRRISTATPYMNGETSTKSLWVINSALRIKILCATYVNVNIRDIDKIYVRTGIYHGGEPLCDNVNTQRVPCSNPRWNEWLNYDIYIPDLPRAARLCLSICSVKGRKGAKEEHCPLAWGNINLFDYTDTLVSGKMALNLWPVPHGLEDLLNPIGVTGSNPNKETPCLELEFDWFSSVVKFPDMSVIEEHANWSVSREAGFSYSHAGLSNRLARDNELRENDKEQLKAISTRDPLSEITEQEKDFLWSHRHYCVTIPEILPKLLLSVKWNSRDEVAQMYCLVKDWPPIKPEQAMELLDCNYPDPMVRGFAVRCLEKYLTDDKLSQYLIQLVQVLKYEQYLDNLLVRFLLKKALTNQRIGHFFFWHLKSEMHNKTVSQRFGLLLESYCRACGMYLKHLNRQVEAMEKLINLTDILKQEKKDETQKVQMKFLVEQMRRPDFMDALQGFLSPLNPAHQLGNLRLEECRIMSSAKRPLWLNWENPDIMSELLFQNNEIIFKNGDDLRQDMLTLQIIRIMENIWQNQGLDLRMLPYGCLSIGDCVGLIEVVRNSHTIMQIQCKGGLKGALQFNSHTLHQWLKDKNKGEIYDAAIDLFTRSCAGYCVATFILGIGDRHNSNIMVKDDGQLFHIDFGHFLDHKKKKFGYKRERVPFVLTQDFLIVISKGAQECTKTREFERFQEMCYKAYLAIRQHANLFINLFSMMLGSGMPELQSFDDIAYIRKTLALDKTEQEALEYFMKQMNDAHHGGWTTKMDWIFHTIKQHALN

Param readout= IC50; system= PI3K (p110α) kinase (Homo sapiens); entry= COCCOc1cnc2ccc(-c3cnc(OC)c(NS(=O)(=O)c4c(F)cccc4F)c3)cn2c1=O ; returns value.
≤ 1 nM

Please state recorded IC50 (tested on PI3K (p110α) kinase (Homo sapiens)) of COCCOc1cnc2ccc(-c3cnc(OC)c(NS(=O)(=O)c4ccc(F)cc4C)c3)cn2c1=O
1 to 10 nM

Tell me reported IC50 for COc1ncc(-c2ccc3nccc(=O)n3c2)cc1NS(=O)(=O)c1ccccc1Cl , tested with PI3K (p110α) kinase (Homo sapiens).
≤ 1 nM

Give the reported IC50 for CCOc1cnc2ccc(-c3cnc(OC)c(NS(=O)(=O)c4ccc(Cl)s4)c3)cn2c1=O (system: PI3K (p110α) kinase (Homo sapiens)).
≤ 1 nM

Reported IC50 for PI3K (p110α) kinase (Homo sapiens), given COc1ncc(-c2ccc3ncc(Cl)c(=O)n3c2)cc1NS(=O)(=O)c1ccc(F)cc1F ?
1 to 10 nM

For the record COc1ncc(-c2ccc3ncc(OCC4COC4)c(=O)n3c2)cc1NS(=O)(=O)c1c(Cl)cccc1Cl , what value of IC50 is listed for PI3K (p110α) kinase (Homo sapiens)?
≤ 1 nM

Hello, I am looking for reported IC50 with PI3K (p110α) kinase (Homo sapiens) for COCCOc1cnc2ccc(-c3cnc(OC)c(NS(=O)(=O)c4cc(C)ccc4C)c3)cn2c1=O . Could you help?
≤ 1 nM

Hello, I am looking for reported IC50 with PI3K (p110α) kinase (Homo sapiens) for COCCOc1cnc2ccc(-c3cnc(OC)c(NS(=O)(=O)c4cc(C)c(Cl)cc4F)c3)cn2c1=O . Could you help?
1 to 10 nM

# returns recorded IC50 (system: PI3K (p110α) kinase (Homo sapiens)) for COc1ncc(-c2ccc3ncc(C)c(=O)n3c2)cc1NS(=O)(=O)c1ccc(F)cc1Cl
≤ 1 nM

Give IC50 (PI3K (p110α) kinase (Homo sapiens)) of the following molecule: COc1ncc(-c2ccc3ncc(C)c(=O)n3c2)cc1NS(=O)(=O)c1ccc(F)cc1F
1 to 10 nM

Short answer please: IC50, PI3K (p110α) kinase (Homo sapiens), entry COCCOc1cnc2ccc(-c3cnc(OC)c(NS(=O)(=O)c4ccccc4Cl)c3)cn2c1=O
≤ 1 nM

* * *

- Test system: MCF-7 cells
- test method notes: In vitro test of cell activity (MCF-7 cells, insulin stimulation, ELISA-One fluorescence)
- Type: cell-based
- measurement conditions: Homo sapiens, MCF7, MCF-7 cells, conc. 0.25 μM; read-out: % inhibition p70s6k
// reported inhibition at 0.25 µM for each item listed
The figure you give is taken to be in %; do not add the unit.

Recorded inhibition at 0.25 µM, per entry:
compound structure	units of measure	inhibition at 0.25 µM
COc1ncc(-c2ccc3ncc(-n4ccc(C)n4)c(=O)n3c2)cc1NS(=O)(=O)c1ccc(Cl)s1	%	67.7
COc1ncc(-c2ccc3ncc(Cl)c(=O)n3c2)cc1NS(=O)(=O)c1[nH]c(C)nc1C	%	63.7
COc1ncc(-c2ccc3ncc(Cl)c(=O)n3c2)cc1NS(=O)(=O)c1cnc(C)n1C	%	92.6
CCOc1cnc2ccc(-c3cnc(OC)c(NS(=O)(=O)c4ccccc4Cl)c3)cn2c1=O	%	82.6

inhibition at 0.25 µM lookup needed for COc1ncc(-c2ccc3ncc(Cl)c(=O)n3c2)cc1NS(=O)(=O)c1c(F)cccc1F , thanks.
86.3

Any idea what its inhibition at 0.25 µM is? The compound is COc1ncc(-c2ccc3nc(C)cc(=O)n3c2)cc1NS(=O)(=O)c1ccc(F)cc1Cl
2

* * *

- target desc: PI3K (p110α) kinase (Homo sapiens)
- Construct: made in house
- test method notes: PI3K (p110α) kinase assay (PI3K HTRF Assay)
- Assay type: biochemical
- measurement conditions: in vitro enzyme activity assay, 10 μM PIP2, read-out: PI3K (p110α) enzyme activity_IC50
pIC50: −log10 of the molar value.
readout label: pIC50

Here are 2 compounds together with their reported answers.
compound structure	pIC50
COCCOc1cnc2ccc(-c3cnc(OC)c(NS(=O)(=O)c4cccc(Cl)c4C)c3)cn2c1=O	≥ 9.00
COc1ncc(-c2ccc3ncc(OCCCF)c(=O)n3c2)cc1NS(=O)(=O)c1ccc(F)cc1Cl	≥ 9.00

State its pIC50 on PI3K (p110α) kinase (Homo sapiens): COCCOc1cnc2ccc(-c3cnc(OC)c(NS(=O)(=O)c4ccc(Cl)cc4F)c3)cn2c1=O
≥ 9.00

For PI3K (p110α) kinase (Homo sapiens), provide pIC50 of COc1ncc(-c2ccc3nccc(=O)n3c2)cc1NS(=O)(=O)c1ccc(F)cc1C please.
8.00 to 9.00

* * *

Item-by-item account of inhibition at 1 µM
- Test system: MCF-7 cells
- test method notes: In vitro test of cell activity (MCF-7 cells, insulin stimulation, ELISA-One fluorescence)
- Format: cell-based
- measurement conditions: Homo sapiens, MCF7, MCF-7 cells, conc. 1 μM; read-out: % inhibition AKT

Here is how some molecules turned out for inhibition at 1 µM.
compound structure	inhibition at 1 µM
COc1ncc(-c2ccc3nccc(=O)n3c2)cc1NS(=O)(=O)c1ccc(C(F)(F)F)cc1	94.5%
COc1ncc(-c2ccc3nccc(=O)n3c2)cc1NS(=O)(=O)c1cc(F)ccc1F	95.6%
CCc1ncc(-c2ccc3nccc(=O)n3c2)cc1NS(=O)(=O)c1ccc(F)cc1F	85.7%
COc1ncc(-c2ccc3nccc(=O)n3c2)cc1NS(=O)(=O)c1ccccc1Cl	95%
COc1ncc(-c2ccc3nccc(=O)n3c2)cc1NS(=O)(=O)c1ccc(Cl)cc1	95.7%

Give the measured inhibition at 1 µM of Cc1ncc(-c2ccc3nccc(=O)n3c2)cc1NS(=O)(=O)c1ccccc1F .
81.9%

Tell me the measured inhibition at 1 µM of COc1ncc(-c2ccc3nccc(=O)n3c2)cc1NS(=O)(=O)c1cccc(F)c1 , please.
95.9%

Suppose we examine the molecule O=c1ccnc2ccc(-c3cnc(Cl)c(NS(=O)(=O)c4ccccc4F)c3)cn12 ; what inhibition at 1 µM value has been reported?
91.2%

Find the recorded inhibition at 1 µM belonging to COc1ncc(-c2ccc3nccc(=O)n3c2)cc1NS(=O)(=O)c1ccc(F)cc1 and report it.
94.7%

Quick check: inhibition at 1 µM of Cc1ncc(-c2ccc3nccc(=O)n3c2)cc1NS(=O)(=O)c1ccc(F)cc1F ?
81.3%

Would you kindly share the measured inhibition at 1 µM for COc1ncc(-c2ccc3nccc(=O)n3c2)cc1NS(=O)(=O)c1ccccc1 ?
95.4%

Can you look up the measured inhibition at 1 µM of COc1ncc(-c2ccc3nccc(=O)n3c2)cc1NS(=O)(=O)c1ccc(F)cc1F for me?
97.5%

Quick check: inhibition at 1 µM of CCc1ncc(-c2ccc3nccc(=O)n3c2)cc1NS(=O)(=O)c1ccccc1F ?
81.1%

Could you share which inhibition at 1 µM value was measured for Cc1ncc(-c2ccc3nccc(=O)n3c2)cc1NS(=O)(=O)c1ccc(F)cc1 ?
84.6%

* * *

Parameter: pIC50. Scope: all listed entries.
- Tested on: MCF-7 cells
- test method notes: In vitro test of cell activity (MCF-7 cells, insulin stimulation, ELISA-One fluorescence)
- Assay type: cell-based
- measurement conditions: Homo sapiens, MCF7, MCF-7 cells; read-out: IC50 p-p70S6K
pIC50: −log10 of the molar value.

Recorded results for 5 molecules are shown here.
compound structure	recorded measurement
COc1ncc(-c2ccc3nccc(=O)n3c2)cc1NS(=O)(=O)c1ccccc1	6.60 to 7.00
COc1ncc(-c2ccc3ncc(F)c(=O)n3c2)cc1NS(=O)(=O)c1ccccc1F	≥ 7.30
COc1ncc(-c2ccc3ncc(Cl)c(=O)n3c2)cc1NS(=O)(=O)c1ccccc1F	6.60 to 7.00
COc1ncc(-c2ccc3nccc(=O)n3c2)cc1NS(=O)(=O)c1ccc(C)nc1	6.60 to 7.00
COc1ncc(-c2ccc3ncc(Cl)c(=O)n3c2)cc1NS(=O)(=O)c1ccc(Cl)s1	≥ 7.30

Give its pIC50 value. Item: COc1ncc(-c2ccc3ncc(Cl)c(=O)n3c2)cc1NS(=O)(=O)c1cnc(C)s1
6.60 to 7.00

Any idea what pIC50 was measured for COc1ncc(-c2ccc3ncc(Cl)c(=O)n3c2)cc1NS(=O)(=O)c1cc(F)ccc1F ?
7.00 to 7.30

I have this molecule here, COc1ncc(-c2ccc3ncc(Cl)c(=O)n3c2)cc1NS(=O)(=O)c1ccc(F)c(F)c1 , and I need its recorded pIC50.
6.60 to 7.00
